- assay target: 5-hydroxytryptamine receptor 6 (Rattus norvegicus, UniProt P31388)
- Sequence (P31388 whole entry): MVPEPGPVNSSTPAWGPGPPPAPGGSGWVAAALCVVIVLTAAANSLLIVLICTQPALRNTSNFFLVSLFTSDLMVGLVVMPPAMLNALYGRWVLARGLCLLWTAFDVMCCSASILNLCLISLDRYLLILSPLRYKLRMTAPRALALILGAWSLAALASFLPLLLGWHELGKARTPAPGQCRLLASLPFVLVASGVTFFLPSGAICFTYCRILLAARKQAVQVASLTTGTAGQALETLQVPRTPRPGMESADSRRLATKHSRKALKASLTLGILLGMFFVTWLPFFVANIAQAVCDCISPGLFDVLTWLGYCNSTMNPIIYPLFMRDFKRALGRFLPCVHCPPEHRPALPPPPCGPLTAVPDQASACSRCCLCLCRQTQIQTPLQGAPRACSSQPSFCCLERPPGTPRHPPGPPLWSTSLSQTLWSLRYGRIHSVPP
pIC50: −log10 of the molar value.
quantity kind: pIC50

// query Can you look up the measured pIC50 of COc1cccc(OC)c1-c1cccc2c1CC[C@H](N(C)C)C2 for me?
// result < 6.00

====

Could you please report measured Efficacy for the items listed next?
- assay target: 5-hydroxytryptamine receptor 7 (Rattus norvegicus)
- assay method text: Stimulation of cAMP production in CHO cells expressing rat 5-hydroxytryptamine 7 receptor
- Format: functional, cell-based
Give bare numbers, in %.

For orientation, consider the following solved cases.
1) CCCN(CCC)[C@H]1COc2c(cccc2-c2ccccc2OC)C1 | 100
2) CCCN(CCC)[C@H]1COc2c(cccc2-c2ccccc2)C1 | 100
3) COc1cccc(OC)c1-c1cccc2c1OC[C@H](N(C)C)C2 | 28
4) CCCN(CCC)[C@H]1CCc2c(cccc2-c2c(OC)cccc2OC)C1 | 100
5) CCCN(CCC)[C@H]1COc2c(cccc2-c2ccc(OC)cc2)C1 | 91
6) CCCN(CCC)[C@H]1CCc2c(cccc2-c2ccccc2)C1 | 100
7) CCCN(CCC)[C@H]1COc2c(cccc2-c2c(OC)cccc2OC)C1 | 154

Let's switch to this compound now.
// query I am curious: what Efficacy value has been reported for CCCN(CCC)[C@H]1CCc2c(cccc2-c2ccccc2OC)C1 ?
// result 100

====

- assay target: D(1A) dopamine receptor (Rattus norvegicus, UniProt P18901)
- Sequence (P18901 whole entry): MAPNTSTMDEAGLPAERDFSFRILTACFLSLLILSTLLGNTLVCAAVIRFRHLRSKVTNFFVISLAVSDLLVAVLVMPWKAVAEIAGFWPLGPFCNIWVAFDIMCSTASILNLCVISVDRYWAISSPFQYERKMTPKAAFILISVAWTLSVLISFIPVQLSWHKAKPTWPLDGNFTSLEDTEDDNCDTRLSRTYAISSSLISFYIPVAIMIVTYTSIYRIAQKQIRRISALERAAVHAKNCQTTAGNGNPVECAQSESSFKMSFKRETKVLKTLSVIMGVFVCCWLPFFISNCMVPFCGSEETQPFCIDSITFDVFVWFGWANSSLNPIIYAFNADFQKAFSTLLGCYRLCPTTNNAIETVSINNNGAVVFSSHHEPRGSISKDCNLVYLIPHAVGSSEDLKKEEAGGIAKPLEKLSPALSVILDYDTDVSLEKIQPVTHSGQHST
- assay method text: Inhibition of [3H]SCH-23390 binding to rat striatum Dopamine receptor 1
quantity kind: Ki

1. CCCN(CCC)[C@H]1CCc2c(cccc2-c2c(OC)cccc2OC)C1 | > 1 µM

Below: the item to evaluate.
// query # lookup: Ki of COc1cccc(OC)c1-c1cccc2c1CC[C@H](N(C)C)C2
// result > 1 µM

====

- assay target: 5-hydroxytryptamine receptor 2A (Rattus norvegicus)
- Sequence (P14842 whole entry): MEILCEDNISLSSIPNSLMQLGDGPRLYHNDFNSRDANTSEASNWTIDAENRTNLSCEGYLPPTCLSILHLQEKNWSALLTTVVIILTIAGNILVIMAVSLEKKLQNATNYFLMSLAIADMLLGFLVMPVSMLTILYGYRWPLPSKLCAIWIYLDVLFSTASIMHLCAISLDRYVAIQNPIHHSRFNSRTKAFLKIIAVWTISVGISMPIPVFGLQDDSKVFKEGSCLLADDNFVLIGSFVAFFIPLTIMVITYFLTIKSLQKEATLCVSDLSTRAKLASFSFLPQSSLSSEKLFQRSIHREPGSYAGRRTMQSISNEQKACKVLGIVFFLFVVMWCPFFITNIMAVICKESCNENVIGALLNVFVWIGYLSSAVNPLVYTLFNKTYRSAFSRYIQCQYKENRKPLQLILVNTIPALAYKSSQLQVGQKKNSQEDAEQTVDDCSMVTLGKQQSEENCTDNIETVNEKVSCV
- assay method text: Inhibition of [3H]- Ketanserin binding to rat cortex 5-HT2A receptor
quantity kind: pKi
Numbers only, as −log10 of the molar value.

1) COc1cccc(OC)c1-c1cccc2c1CC[C@H](N(C)C)C2 | 5.87

// query Value wanted: pKi (5-hydroxytryptamine receptor 2A (Rattus norvegicus)) of entry CCCN(CCC)[C@H]1CCc2c(cccc2-c2c(OC)cccc2OC)C1
// result 5.84

====

- assay target: 5-hydroxytryptamine receptor 7 (Rattus norvegicus, UniProt P32305)
- Sequence (P32305 whole entry): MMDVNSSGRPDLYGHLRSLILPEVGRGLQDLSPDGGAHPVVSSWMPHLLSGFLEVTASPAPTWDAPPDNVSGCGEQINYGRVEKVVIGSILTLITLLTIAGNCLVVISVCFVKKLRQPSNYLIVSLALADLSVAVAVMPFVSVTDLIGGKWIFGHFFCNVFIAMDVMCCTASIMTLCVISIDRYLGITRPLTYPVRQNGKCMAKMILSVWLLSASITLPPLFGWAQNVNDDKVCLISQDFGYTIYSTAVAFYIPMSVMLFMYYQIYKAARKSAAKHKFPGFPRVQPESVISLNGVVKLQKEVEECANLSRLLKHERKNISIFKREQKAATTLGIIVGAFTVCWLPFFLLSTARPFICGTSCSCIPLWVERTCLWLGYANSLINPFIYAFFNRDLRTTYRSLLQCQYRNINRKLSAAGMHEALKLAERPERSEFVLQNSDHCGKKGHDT
- assay method text: Inhibition of [3H]5-HT binding to rat 5-HT7 receptor
quantity kind: pKi
Give bare numbers, as −log10 of the molar value.

1) CCCN(CCC)[C@H]1CCc2c(cccc2-c2c(OC)cccc2OC)C1 | 8.10

Read the next record carefully.
// query What does the record list as pKi for COc1cccc(OC)c1-c1cccc2c1CC[C@H](N(C)C)C2 ?
// result 8.59

====

- assay target: UniProtKB P08908
- Sequence (P08908 whole entry): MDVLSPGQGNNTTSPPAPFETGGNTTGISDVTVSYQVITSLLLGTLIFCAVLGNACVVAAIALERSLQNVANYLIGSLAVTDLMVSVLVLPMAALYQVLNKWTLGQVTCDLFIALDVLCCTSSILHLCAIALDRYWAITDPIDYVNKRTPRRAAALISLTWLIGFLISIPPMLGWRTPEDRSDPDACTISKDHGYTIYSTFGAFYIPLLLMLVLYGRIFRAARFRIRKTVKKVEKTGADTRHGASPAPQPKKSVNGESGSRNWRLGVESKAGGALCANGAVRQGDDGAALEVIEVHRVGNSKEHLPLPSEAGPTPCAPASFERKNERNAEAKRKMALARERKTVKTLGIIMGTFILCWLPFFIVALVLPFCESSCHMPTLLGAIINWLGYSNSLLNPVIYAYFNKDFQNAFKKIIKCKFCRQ
quantity kind: pKi
Answers are plain numbers, as −log10 of the molar value.

// query Form field - read-out: pKi; system: UniProtKB P08908; submitted item: COc1cccc(OC)c1-c1cccc2c1CC[C@H](N(C)C)C2
// result 5.85

====

- assay target: 5-hydroxytryptamine receptor 6 (Rattus norvegicus)
pKi: −log10 of the molar value.
quantity kind: pKi

// query Param readout= pKi; system= 5-hydroxytryptamine receptor 6 (Rattus norvegicus); entry= CCCN(CCC)[C@H]1CCc2c(cccc2-c2c(OC)cccc2OC)C1 ; returns value.
// result < 6.05

====

Provide the recorded Ratio for the entries that follow.
- Species: Rattus norvegicus
- assay method text: Inhibition of 3[H]8-OH--DPAT and [3H]5-HT binding to 5-hydroxytryptamine 1A receptor and 5-hydroxytryptamine 7 receptor in rat
Numbers only.

Known Ratio results, listed for orientation:
1. CCCN(CCC)[C@H]1COc2c(cccc2-c2c(OC)cccc2OC)C1 | 27
2. CCCN(CCC)[C@H]1CCc2c(cccc2-c2ccccc2OC)C1 | 6.8
3. O=S(=O)(c1ccc2c(c1)CC=C2)N1CCC[C@@H]1CCN1CCC(Oc2ccc(Cl)cc2)CC1 | 282

# per-item lookup of Ratio; items listed below
1. O=C1Nc2cccc3c2C1(CCCCN1CCc2sccc2C1)CCC3 (stereo unspecified)
2. CCCN(CCC)[C@H]1CCc2c(cccc2-c2ccccc2)C1
3. CCCN(CCC)[C@@H]1COc2c(cccc2-c2ccccc2OC)C1
4. CCCN(CCC)[C@H]1COc2c(cccc2-c2ccccc2OC)C1
5. CCCN(CCC)[C@H]1CCc2c(cccc2-c2ccc(OC)cc2)C1
6. Cc1cccc(C#N)c1-c1cccc2c1-c1cccc3c1[C@@H](C2)N(C)CC3

// result
79
0.26
1.9
3.8
0.12
37

====

- assay target: UniProt O70528
- Sequence (O70528 whole entry): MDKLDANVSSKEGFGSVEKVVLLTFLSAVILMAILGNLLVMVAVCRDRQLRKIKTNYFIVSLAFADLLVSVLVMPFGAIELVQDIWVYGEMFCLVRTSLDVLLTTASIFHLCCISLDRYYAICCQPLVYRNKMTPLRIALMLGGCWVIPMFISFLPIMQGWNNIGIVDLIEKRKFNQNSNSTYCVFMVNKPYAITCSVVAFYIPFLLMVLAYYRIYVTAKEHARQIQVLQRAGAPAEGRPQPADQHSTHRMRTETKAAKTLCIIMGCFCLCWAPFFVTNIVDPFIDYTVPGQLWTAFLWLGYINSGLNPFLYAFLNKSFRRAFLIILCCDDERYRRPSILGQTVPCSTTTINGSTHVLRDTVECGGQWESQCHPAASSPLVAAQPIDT
pIC50: −log10 of the molar value.
quantity kind: pIC50

// query Give the reported pIC50 for COc1cccc(OC)c1-c1cccc2c1CC[C@H](N(C)C)C2 (system: UniProt O70528).
// result < 6.00

====

- assay target: D(2) dopamine receptor (Homo sapiens) (UniProt P14416)
- Sequence (P14416 whole entry, looked up): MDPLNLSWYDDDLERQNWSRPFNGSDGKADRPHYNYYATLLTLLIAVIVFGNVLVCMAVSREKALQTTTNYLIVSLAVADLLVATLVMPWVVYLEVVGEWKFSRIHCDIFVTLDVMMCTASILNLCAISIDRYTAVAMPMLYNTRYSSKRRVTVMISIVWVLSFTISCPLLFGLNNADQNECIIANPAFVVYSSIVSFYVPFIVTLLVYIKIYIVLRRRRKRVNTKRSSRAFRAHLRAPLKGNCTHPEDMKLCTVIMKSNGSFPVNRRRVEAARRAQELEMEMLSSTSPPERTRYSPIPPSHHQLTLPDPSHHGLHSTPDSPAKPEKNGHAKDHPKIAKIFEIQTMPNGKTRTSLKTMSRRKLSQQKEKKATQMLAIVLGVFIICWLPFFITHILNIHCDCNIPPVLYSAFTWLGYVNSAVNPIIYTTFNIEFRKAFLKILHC
- assay method text: Inhibition of [3H]raclopride binding to Dopamine receptor D2A in human
quantity kind: pKi
Answers are plain numbers, as −log10 of the molar value.

1. CCCN(CCC)[C@H]1COc2c(cccc2-c2ccccc2OC)C1 | 6.29

Please turn your attention to the following entry.
// query Could you share which pKi value was measured for CCCN(CCC)[C@@H]1COc2c(cccc2-c2ccccc2OC)C1 ?
// result 5.68

====

- assay target: UniProt P19327
- Sequence (P19327 whole entry): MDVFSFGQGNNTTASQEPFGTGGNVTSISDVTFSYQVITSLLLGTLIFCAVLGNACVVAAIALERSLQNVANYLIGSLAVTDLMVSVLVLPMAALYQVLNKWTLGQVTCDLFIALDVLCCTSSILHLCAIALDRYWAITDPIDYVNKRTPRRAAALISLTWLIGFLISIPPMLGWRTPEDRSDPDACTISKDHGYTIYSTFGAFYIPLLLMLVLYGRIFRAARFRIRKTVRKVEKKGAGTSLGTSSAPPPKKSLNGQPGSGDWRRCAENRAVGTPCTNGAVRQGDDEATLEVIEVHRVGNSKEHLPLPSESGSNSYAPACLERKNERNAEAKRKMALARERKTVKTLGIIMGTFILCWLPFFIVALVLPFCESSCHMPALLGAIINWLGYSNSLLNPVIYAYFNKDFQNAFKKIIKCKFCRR
- assay method text: Inhibition of [3H]8-OH-DPAT binding to rat 5-hydroxytryptamine 1A receptor
Assign Ki to each entry below.
Give bare numbers, in µM.

Examples with answers:
1. CCCN(CCC)[C@H]1COc2c(cccc2-c2ccccc2)C1 | 0.00123
2. O=S(=O)(c1ccc2c(c1)CC=C2)N1CCC[C@@H]1CCN1CCC(Oc2ccc(Cl)cc2)CC1 | 0.562
3. CCCN(CCC)[C@H]1CCc2c(cccc2-c2ccc(OC)cc2)C1 | 0.00149
4. CCCN(CCC)[C@H]1CCc2c(cccc2-c2ccccc2)C1 | 0.00087
5. COc1cccc(OC)c1-c1cccc2c1CC[C@H](N(C)C)C2 | 1.42

Could I get Ki for every one of these entries?
1. CCCN(CCC)[C@H]1COc2c(cccc2-c2c(OC)cccc2OC)C1
2. CCCN(CCC)[C@H]1CCc2c(cccc2-c2ccccc2OC)C1

// result
1: 0.174; 2: 0.0117
